- Tested on: K4 kissing-loop RNA reporter;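 also: bound reporter read as fluorescence of individual clusters on recovered sequencing chips by microscopy, with normalized cluster intensities fitted with a binding model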
- Assay Name: apparent KD of K4 kissing-loop reporter; higher = weaker reporter binding
- Recorded Conditions: Eterna round: R107; input ligand: arginine 13.2 mM
Decide using apparent KD of K4 kissing-loop reporter: a value greater than or equal to 200 nM is true (1), a smaller one is false (0).

>  <Sequence Code>
UAACUUGCAGUGAUGUUGCAAGAACUGGAUACCAGCAUGGAAACAUGCCCUUGGCAGCCAGAAGGUAUCCUCUGCAAGAGAUACA [Design1]

>  <Classification>
true (1)

$$$$
>  <Sequence Code>
UAGCAUUUGCUCGAGUGAUGUUCGAGCGAAGGAGCGCGAGAAAUCGCAGGUAGGUCGCGCUCGAACUAUGAGCGAUCAUUUAUUG [Arg A Ex t2d]

>  <Classification>
true (1)

$$$$
>  <Sequence Code>
GGAUGGUAGGCGGCCGCCACUAAAACUGAACACAUACAAGCCAGUGAUGUUGGUAUGAUGAAGUAUAGGACCGGGCCUAGAUAGA [Exclusion - Tryptophan B (Freestyle 3)]

>  <Classification>
true (1)

$$$$
>  <Sequence Code>
AAGGUAUCACCAACUUGUAACAUAGGUGAUACCAGCAUCGAAAGAUGCCCUUGGCAGCACCAACUUGCAGUGAUGUUGCAAGUAA [(T)'-(H)'-(T1)-(T2)-(H1)-(H2)_Design11]

>  <Classification>
false (0)

$$$$
>  <Sequence Code>
AAUCGCGAGUCAGAUACCAGUUGGCUCGAGAGUCAGUGAUGUUGAUGUAAAUCUUAGGCGAACCCUUGGCAGCUGUCACCAGUCC [theeternabot_sameState_KL_Theo_B_27]

>  <Classification>
true (1)

$$$$
>  <Sequence Code>
GGAUCCACCAGUGAUGUUGGAGAAAACUCCAAGGAUAUGACGAAAGUCAGAAGGUGGUAGACUGGACAAAGUCCGGUGGGAUCCA [FmnA10 G78]

>  <Classification>
false (0)

$$$$

These measurements were taken from the supplement of paper PMC9170038.
